Assay: Pharmacokinetics of compound A after conventional formulation (elimination half-life; absorption by deconvolution)
Conditions: human, in vivo; read-out: elimination half-life (T1/2)
From the text: Taking into consideration the results of the clinical trial described above, the present inventors conducted intensive studies to design the formulation by paying attention to the control of a release rate of the drug from a formulation to the extent that the release is not affected by food intake or the like, rather than the addition of release control. […]
quantityName: half-life

INPUT: Which half-life value is on record for "Nc1nc(CC(=O)Nc2ccc(CCNC[C@H](O)c3ccccc3)cc2)cs1" ?
OUTPUT: 18 to 24 h
